EXPERIMENT_DESCRIPTION: Microsomal stability
Assay type: in vitro ADME, mouse
ASSAY_SETUP: microsomes + NADPH, 0 min
REPORTED_ENDPOINT: % remaining (%)

# MOLECULE, REPORTED_ENDPOINT, UNIT_NAME, QUANTITATIVE_READOUT
measured = [
    ("CC[C@H](C)[C@H]1C(=O)N2CCC[C@H]2C(=O)O[C@H](C(C)(C)C)C[C@@H](C)C[C@H](O)[C@H](C)C2=N[C@@H](CCC(=O)N[C@@H](Cc3ccc(OC)cc3)C(=O)N(C)[C@@H](C)C(=O)N1C)CS2 [apratoxin S4 (BK), Apratoxin S4]", "% remaining", "%", 100),
    ("CC[C@H](C)[C@H]1C(=O)N2CCC[C@@H]2C(=O)O[C@H](C(C)(C)C)C[C@@H](C)C[C@H](O)C(C)(C)C2=N[C@@H](CCC(=O)N[C@@H](Cc3ccc(OC)cc3)C(=O)N(C)[C@@H](C)C(=O)N1C)CS2 [apratoxin S8 (BM), Apratoxin S8]", "% remaining", "%", 100),
    ("CC[C@H](C)[C@H]1C(=O)N2CCC[C@@H]2C(=O)O[C@H](C(C)(C)C)C[C@@H](C)C[C@H](O)CC2=N[C@@H](CCC(=O)N[C@@H](Cc3ccc(OC)cc3)C(=O)N(C)[C@@H](C)C(=O)N1C)CS2 [apratoxin S7 (BL), Apratoxin S7]", "% remaining", "%", 100),
    ("CC[C@H](C)[C@H]1C(=O)N2CCC[C@@H]2C(=O)O[C@H](C(C)(C)C)C[C@@H](C)C[C@H](O)[C@H](C)C2=N[C@H](CCC(=O)N[C@@H](Cc3ccc(OC)cc3)C(=O)N(C)[C@@H](C)C(=O)N1C)CS2 [apratoxin S9 (BN), Apratoxin S9]", "% remaining", "%", 100),
]

###

Recorded % remaining by entry
EXPERIMENT_DESCRIPTION: Microsomal stability
Type: in vitro ADME, mouse
ASSAY_SETUP: microsomes + NADPH, 60 min

# SMILES_DATA, % remaining / %
records = [
    ("CC[C@H](C)[C@H]1C(=O)N2CCC[C@H]2C(=O)O[C@H](C(C)(C)C)C[C@@H](C)C[C@H](O)[C@H](C)C2=N[C@@H](CCC(=O)N[C@@H](Cc3ccc(OC)cc3)C(=O)N(C)[C@@H](C)C(=O)N1C)CS2", 10.00),
    ("CC[C@H](C)[C@H]1C(=O)N2CCC[C@@H]2C(=O)O[C@H](C(C)(C)C)C[C@@H](C)C[C@H](O)C(C)(C)C2=N[C@@H](CCC(=O)N[C@@H](Cc3ccc(OC)cc3)C(=O)N(C)[C@@H](C)C(=O)N1C)CS2", 3.55),
    ("CC[C@H](C)[C@H]1C(=O)N2CCC[C@@H]2C(=O)O[C@H](C(C)(C)C)C[C@@H](C)C[C@H](O)[C@H](C)C2=N[C@H](CCC(=O)N[C@@H](Cc3ccc(OC)cc3)C(=O)N(C)[C@@H](C)C(=O)N1C)CS2", 6.06),
    ("CC[C@H](C)[C@H]1C(=O)N2CCC[C@@H]2C(=O)O[C@H](C(C)(C)C)C[C@@H](C)C[C@H](O)CC2=N[C@@H](CCC(=O)N[C@@H](Cc3ccc(OC)cc3)C(=O)N(C)[C@@H](C)C(=O)N1C)CS2", 5.41),
]
